B1: SPSB1 (parent)
chain: DMRDPTYRPLKQELQGLDYCKPTR

# Variants of: B1
# assayInfo: protein stability index of a GFP-peptide fusion (GPS, HEK-293T) (PSI 1-6); higher = more stable;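 further: lentivirally expressed fusions sorted by FACS into six bins by GFP to DsRed ratio, PSI derived from sequencing read proportions per bin multiplied by bin number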
# settings: c terminus: a fixed tail appended
Condition met means recorded protein stability index is 3 or above; Condition not met means it is below 3.

[[record]]
mutationcode = "K11C"
classlabel = "Condition not met"

[[record]]
mutationcode = "T6V"
classlabel = "Condition met"

[[record]]
mutationcode = "R3E"
classlabel = "Condition met"

[[record]]
mutationcode = "M2I"
classlabel = "Condition met"

